experiment: chemical genetic growth profiling, strain panel (AID 1159580);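 note: tested at 20 µM; growth read once vehicle control cultures reached saturation at 30 °C; lower values mean less growth of the strain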; details: S. cerevisiae deletion strains, growth OD, locus YDR052C, strain DBF4
The campaign covered roughly 5,500 compounds. About 2,000 (36%) were called active. Roughly 18% stayed inconclusive and do not appear here. Cut-off read from the data, not from the text of the source: active = normalized growth mostly below about 0.91 (no sharp cut-off); inconclusive = no clear call, values can overlap the other calls; inactive = mostly above about 0.92. Some of the results follow.
Permitted responses: active, inactive

### Prompt Please state the recorded outcome for this molecule: O=C(CSC1=NNC(c2ccccn2)S1)Nc1ccccc1 (stereo unspecified)
### Response inactive

### Prompt Please state the recorded outcome for this molecule: CC(=O)c1ccc(Cl)c(N=Cc2cc(Cl)cc(Cl)c2O)c1
### Response inactive

### Prompt Please state the recorded outcome for this molecule: C#CCSC1=NNC(c2ccccn2)S1 (stereo unspecified)
### Response inactive

### Prompt Please state the recorded outcome for this molecule: CC(C)(C)c1cc(C(=O)Nc2ccc3c(c2)OCO3)n(Cc2ccc(F)cc2)n1
### Response inactive

### Prompt Please state the recorded outcome for this molecule: Cc1onc(-c2c(F)cccc2Cl)c1/C(N)=N\OC(=O)c1ccc(C(C)(C)C)cc1
### Response inactive

### Prompt Please state the recorded outcome for this molecule: N/C(Cc1cccc2ccccc12)=N/OC(=O)c1ccc(Cl)cc1
### Response inactive

### Prompt Please state the recorded outcome for this molecule: CC(C)(C)c1cc(C(=O)NNc2cccc(Cl)c2)n(Cc2ccccc2)n1
### Response inactive

### Prompt Please state the recorded outcome for this molecule: O=S(=O)(Oc1ccc(-c2csnn2)cc1)c1ccccc1Cl
### Response inactive

### Prompt Please state the recorded outcome for this molecule: NC(=S)N/N=C1/CCCc2ccccc21
### Response active

### Prompt Please state the recorded outcome for this molecule: Cc1c(C)c(C)c(C(=O)c2ccc(N=Cc3cc(Cl)cc(Cl)c3O)cc2)c(C)c1C
### Response active

### Prompt Please state the recorded outcome for this molecule: Cc1onc(-c2c(Cl)cccc2Cl)c1C(=O)O/N=C(/N)Cc1ccc(C(C)(C)C)cc1
### Response inactive
